- STUDY_TARGET: recombinant ASK1 (Homo sapiens, UniProt Q99683)
- Construct: purchased Carna Biosciences
- Sequence (Q99683 654-971 limits assumed): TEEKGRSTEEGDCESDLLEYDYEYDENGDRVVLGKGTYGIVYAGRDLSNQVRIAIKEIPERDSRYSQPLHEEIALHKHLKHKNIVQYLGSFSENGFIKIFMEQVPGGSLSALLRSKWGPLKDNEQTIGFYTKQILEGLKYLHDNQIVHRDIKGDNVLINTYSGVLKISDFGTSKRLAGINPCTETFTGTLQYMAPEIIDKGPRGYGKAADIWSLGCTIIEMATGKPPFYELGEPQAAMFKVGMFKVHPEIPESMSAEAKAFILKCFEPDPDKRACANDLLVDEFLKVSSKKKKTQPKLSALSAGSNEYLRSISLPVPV
- ASSAY_DETAILS: ASK1 Biochemical Assay (HTRF KinEASE-STK S3)
- STATED_CONDITIONS: ATP 100 μM; read-out: Biochemical Assay IC50
pIC50: −log10 of the molar value.
RECORDED_METRIC: pIC50

The cases that follow already have their pIC50 on record.
MOLECULE: CC(C)n1cnnc1-c1cccc(N2CCN(c3ccc(N4CCC(C)(C)CC4)cc3)C2=O)n1 [Example 1070]
pIC50: > 7.00

MOLECULE: CC(C)n1cnnc1-c1cccc(N2CCN(c3cccc(-n4cnc(C5CC5)c4)c3)C2=O)n1 [Example 1005]
pIC50: > 6.00

MOLECULE: CNC(=O)C1CC2CCC(C1)N2c1ccc(N2CCN(c3cccc(-c4nncn4C(C)C)n3)C2=O)cc1 (stereo not shown) [Example 1140]
pIC50: > 7.30

// query Quick check: pIC50 of CC(C)n1cnnc1-c1cccc(N2CCN(c3ccc(N4CCC(C(=O)N(C)C)CC4)cc3)C2=O)n1 [Example 1097] ?
// result > 7.30

// query Quick check: pIC50 of CC(C)n1cnnc1-c1cccc(N2CCN(c3ccc(N4CC(C#N)C4)nc3)C2=O)n1 [Example 1107] ?
// result > 7.30

// query Quick check: pIC50 of CC(C)n1cnnc1-c1cccc(N2CCN(c3cccc(N4CCOCC4)c3)C2=O)n1 [Example 1108] ?
// result < 7.00

// query Quick check: pIC50 of CC(C)n1cnnc1-c1cccc(N2CCN(c3ccc(-n4ccnc4)cc3)C2=O)n1 [Example 1036] ?
// result > 7.00

// query Quick check: pIC50 of CC(C)n1cnnc1-c1cccc(N2CCN(c3ccc(N4CC(O)(C(C)C)C4)cc3)C2=O)n1 [Example 1089] ?
// result > 7.00

// query Quick check: pIC50 of CC(C)n1cnnc1-c1cccc(N2CCN(c3ccc(S(C)(=O)=O)cc3F)C2=O)n1 [Example 1032] ?
// result > 7.00

// query Quick check: pIC50 of CC(C)n1cnnc1-c1cccc(N2CCN(c3cccc(-n4ccnc4)c3)C2=O)n1 [Example 1002] ?
// result 7.15

// query Quick check: pIC50 of COCCCNC(=O)c1ccc(N2CCN(c3cccc(-c4nncn4C(C)C)n3)C2=O)cn1 [Example 1117] ?
// result > 7.00

// query Quick check: pIC50 of CC(C)n1cnnc1-c1cccc(N2CCN(c3ccc(N4CC(F)C4)cc3)C2=O)n1 [Example 1096] ?
// result > 7.00

// query Quick check: pIC50 of CC(C)n1cnnc1-c1cccc(N2CCN(c3ccc(C4CCN(S(C)(=O)=O)CC4)cc3)C2=O)n1 [Example 1084] ?
// result > 7.00

// query Quick check: pIC50 of CC(C)n1cnnc1-c1cccc(N2CCN(c3ccc(N4CC(C#N)C4)cc3)C2=O)n1 [Example 1071] ?
// result > 7.00

// query Quick check: pIC50 of CC(C)n1cnnc1-c1cccc(N2CCN(c3ccc(S(C)(=O)=O)c(N4CCCCC4)c3)C2=O)n1 [Example 1063] ?
// result > 7.00

// query Quick check: pIC50 of CC(C)n1cnnc1-c1cccc(-n2ccn(-c3cccc(-n4ccnc4)c3)c2=O)n1 [Example 1006] ?
// result > 6.00
